System: Danio rerio larvae Tg(actc1b:ZsGreen-LC3), 3 dpf
Assay: LC3 puncta relative area vs vehicle, without NH4Cl (log2 fold change); higher = more autophagosomes
Conditions: 10 µM; treatment time 16 h; NH4Cl: none
Structures can show the parent of a compound that is named as a salt.
Respond with true for LC3 puncta (log2) values of 0.02 and above, false for values below.

{"Compound": "Fc1ccc(C(OCCN2CCN(C/C=C/c3ccccc3)CC2)c2ccc(F)cc2)cc1", "Class Label": "true"}
{"Compound": "CC[N+](CC)(CCCNC1=CC(=O)C(NCCC[N+](CC)(CC)Cc2ccccc2)=CC1=O)Cc1ccccc1 [Benzoquinonium dibromide]", "Class Label": "false"}
{"Compound": "O=c1[nH]oc2c1CCNC2 [THIP hydrochloride]", "Class Label": "true"}
{"Compound": "Cc1[nH]c2ccc(O)cc2c1CCN [2-Methyl-5-hydroxytryptamine hydrochloride]", "Class Label": "false"}
{"Compound": "O=C(O)Cc1cccnc1C(=O)O", "Class Label": "false"}
{"Compound": "S=C=Nc1cccc(C2(N3CCCCC3)CCCCC2)c1", "Class Label": "true"}
{"Compound": "N[C@@]1(C(=O)O)CC[C@@H](C(=O)O)C1", "Class Label": "true"}
{"Compound": "Cn1cnc(CCN)c1 [N?-Methylhistamine dihydrochloride]", "Class Label": "true"}
{"Compound": "CC(N)Cc1cnc[nH]1 (stereo not given)", "Class Label": "true"}

Let's switch to this compound now.
[ask] Reported LC3 puncta (log2) at or above 0.02? c1ccc(CCCCN2CCC(c3ccccc3)CC2)cc1 [4-PPBP maleate]
[reply] false
